Origin of the recorded values: the supplement of paper PMC11061612

- System: NCI-H2818 (Mesothelioma)
- experiment: combination Emax (second highest fraction inhibited in the dose matrix, 72 h); higher = more inhibition; extreme values may be limits of the assay
reported-property: combination Emax
Format: numeric value only, no unit, no commentary.

Answer with the recorded combination Emax for the compound listed here: Cc1cc2ncnn2cc1Nc1ncc2c(n1)n(C1CCOCC1)c(=O)n2C [AZD7648] + O=C(c1cc(Cc2n[nH]c(=O)c3ccccc23)ccc1F)N1CCN(C(=O)C2CC2)CC1 [Olaparib] (first compound max 10 µM, 7x7, partner max 10 µM) 0.328

Answer with the recorded combination Emax for the compound listed here: CN(CCO)CC[C@H](CSc1ccccc1)Nc1ccc(S(=O)(=O)NC(=O)c2ccc(N3CCC([C@@H](O)c4ccccc4-c4ccc(Cl)cc4)CC3)cc2)cc1S(=O)(=O)C(F)(F)F [AZD4320] + C1CN(CCC1(C(=O)N[C@@H](CCO)C2=CC=C(C=C2)Cl)N)C3=NC=NC4=C3C=CN4 [Capivasertib] (first compound max 1 µM, 7x7, partner max 3 µM) 0.184

Answer with the recorded combination Emax for the compound listed here: COc1nnc2ccc(N3CCC(c4ccc(OCCN5CCN(C)C(=O)[C@H]5C)cc4)CC3)nn12 [AZD5153] + CCN(CCO)CCCOc1ccc2c(Nc3cc(CC(=O)Nc4cccc(F)c4)[nH]n3)ncnc2c1 [AZD2811] (first compound max 1 µM, 7x7, partner max 1 µM) 0.292

Answer with the recorded combination Emax for the compound listed here: C[C@@H](Nc1cc(F)cc(F)c1)c1cc(C(=O)N(C)C)cc2c(=O)cc(N3CCOCC3)oc12 [AZD8186] + CC(=O)c1c(C)c2cnc(Nc3ccc(N4CCNCC4)cn3)nc2n(C2CCCC2)c1=O [Palbociclib] (first compound max 10 µM, 7x7, partner max 10 µM) 0.389

Answer with the recorded combination Emax for the compound listed here: CN(CCO)CC[C@H](CSc1ccccc1)Nc1ccc(S(=O)(=O)NC(=O)c2ccc(N3CCC([C@@H](O)c4ccccc4-c4ccc(Cl)cc4)CC3)cc2)cc1S(=O)(=O)C(F)(F)F [AZD4320] + CN(C)CCCOc1ccc(-c2ccc3ncc4c(c3c2)n(C2CCOCC2)c(=O)n4C)cn1 [AZD0156] (first compound max 1 µM, 7x7, partner max 1 µM) 0.268

Answer with the recorded combination Emax for the compound listed here: CC(=O)c1c(C)c2cnc(Nc3ccc(N4CCNCC4)cn3)nc2n(C2CCCC2)c1=O [Palbociclib] + CC1(C)CCC(CN2CCN(c3ccc(C(=O)NS(=O)(=O)c4ccc(NCC5CCOCC5)c([N+](=O)[O-])c4)c(Oc4cnc5[nH]ccc5c4)c3)CC2)=C(c2ccc(Cl)cc2)C1 [Venetoclax] (first compound max 10 µM, 7x7, partner max 1 µM) 0.203

====

- System: SW837 (Colorectal Carcinoma)
- experiment: combination Emax (second highest fraction inhibited in the dose matrix, 72 h); higher = more inhibition; extreme values may be limits of the assay
Values of combination Emax greater than or equal to 0.4 map to Satisfied; values below map to Not satisfied.

Please indicate if the recorded combination Emax for Cn1cnc2c(F)c(Nc3ccc(Br)cc3Cl)c(C(=O)NOCCO)cc21 [Selumetinib] + C=CCn1c(=O)c2cnc(Nc3ccc(N4CCN(C)CC4)cc3)nc2n1-c1cccc(C(C)(C)O)n1 [AZD1775] (first compound max 10 µM, partner max 1 µM) meets or exceeds 0.4. Satisfied

Please indicate if the recorded combination Emax for NC1(C(=O)N[C@@H](CCO)c2ccc(Cl)cc2)CCN(c2ncnc3[nH]ccc23)CC1 [Capivasertib] + Cn1cnc2c(F)c(Nc3ccc(Br)cc3Cl)c(C(=O)NOCCO)cc21 [Selumetinib] (first compound max 10 µM, 7x7, partner max 10 µM) meets or exceeds 0.4. Satisfied

Please indicate if the recorded combination Emax for NC1(C(=O)N[C@@H](CCO)c2ccc(Cl)cc2)CCN(c2ncnc3[nH]ccc23)CC1 [Capivasertib] + CC(C)n1c(=O)n(C)c2cnc3cc(F)c(-c4ccc(OCCCN5CCCCC5)nc4)cc3c21 [AZD1390] (first compound max 10 µM, 7x7, partner max 0.3 µM) meets or exceeds 0.4. Not satisfied

Please indicate if the recorded combination Emax for COc1nnc2ccc(N3CCC(c4ccc(OCCN5CCN(C)C(=O)[C@H]5C)cc4)CC3)nn12 [AZD5153] + CCN(CCO)CCCOc1ccc2c(Nc3cc(CC(=O)Nc4cccc(F)c4)[nH]n3)ncnc2c1 [AZD2811] (first compound max 1 µM, 7x7, partner max 1 µM) meets or exceeds 0.4. Satisfied

Please indicate if the recorded combination Emax for Cc1c2c(nn1C)CSCc1cc(n(C)n1)CSc1cc(c3ccccc3c1)OCCCc1c(C(=O)O)n(C)c3c-2c(Cl)ccc13 [AZD5991] + Cc1cc2ncnn2cc1Nc1ncc2c(n1)n(C1CCOCC1)c(=O)n2C [AZD7648] (first compound max 1 µM, 7x7, partner max 10 µM) meets or exceeds 0.4. Not satisfied

Please indicate if the recorded combination Emax for COc1nnc2ccc(N3CCC(c4ccc(OCCN5CCN(C)C(=O)[C@H]5C)cc4)CC3)nn12 [AZD5153] + Cn1cnc2c(F)c(Nc3ccc(Br)cc3Cl)c(C(=O)NOCCO)cc21 [Selumetinib] (first compound max 1 µM, 7x7, partner max 10 µM) meets or exceeds 0.4. Satisfied

Please indicate if the recorded combination Emax for CCN(CCO)CCCOc1ccc2c(Nc3cc(CC(=O)Nc4cccc(F)c4)[nH]n3)ncnc2c1 [AZD2811] + C=CCn1c(=O)c2cnc(Nc3ccc(N4CCN(C)CC4)cc3)nc2n1-c1cccc(C(C)(C)O)n1 [AZD1775] (first compound max 1 µM, partner max 1 µM) meets or exceeds 0.4. Not satisfied

Please indicate if the recorded combination Emax for CC(=O)c1c(C)c2cnc(Nc3ccc(N4CCNCC4)cn3)nc2n(C2CCCC2)c1=O [Palbociclib] + Cn1cnc2c(F)c(Nc3ccc(Br)cc3Cl)c(C(=O)NOCCO)cc21 [Selumetinib] (first compound max 10 µM, 7x7, partner max 10 µM) meets or exceeds 0.4. Satisfied

Please indicate if the recorded combination Emax for CC(=O)c1c(C)c2cnc(Nc3ccc(N4CCNCC4)cn3)nc2n(C2CCCC2)c1=O [Palbociclib] + CC1(C)CCC(CN2CCN(c3ccc(C(=O)NS(=O)(=O)c4ccc(NCC5CCOCC5)c([N+](=O)[O-])c4)c(Oc4cnc5[nH]ccc5c4)c3)CC2)=C(c2ccc(Cl)cc2)C1 [Venetoclax] (first compound max 10 µM, 7x7, partner max 1 µM) meets or exceeds 0.4. Not satisfied

Please indicate if the recorded combination Emax for CC1(C)CCC(CN2CCN(c3ccc(C(=O)NS(=O)(=O)c4ccc(NCC5CCOCC5)c([N+](=O)[O-])c4)c(Oc4cnc5[nH]ccc5c4)c3)CC2)=C(c2ccc(Cl)cc2)C1 [Venetoclax] + C[C@@H]1COCCN1C2=NC(=NC(=C2)C3(CC3)[S@](=N)(=O)C)C4=C5C=CNC5=NC=C4 [AZD6738] (first compound max 1 µM, 7x7, partner max 10 µM) meets or exceeds 0.4. Not satisfied

Please indicate if the recorded combination Emax for Cc1cc2ncnn2cc1Nc1ncc2c(n1)n(C1CCOCC1)c(=O)n2C [AZD7648] + COc1cc([C@@H]2c3cc4c(cc3[C@@H](O[C@@H]3O[C@@H]5CO[C@@H](C)O[C@H]5[C@H](O)[C@H]3O)[C@H]3COC(=O)[C@H]23)OCO4)cc(OC)c1O [Etoposide] (first compound max 10 µM, 7x7, partner max 10 µM) meets or exceeds 0.4. Not satisfied

Please indicate if the recorded combination Emax for Cn1cnc2c(F)c(Nc3ccc(Br)cc3Cl)c(C(=O)NOCCO)cc21 [Selumetinib] + CC(C)n1c(=O)n(C)c2cnc3cc(F)c(-c4ccc(OCCCN5CCCCC5)nc4)cc3c21 [AZD1390] (first compound max 10 µM, 7x7, partner max 0.3 µM) meets or exceeds 0.4. Satisfied

====

Can you tell me Bliss excess for the items I'm about to list?
- Test system: ES1 (Ewing's Sarcoma)
- experiment: Bliss excess, mean over the matrix (fraction); higher = more synergy

Answer with the recorded Bliss excess for the compound listed here: CC1(C)CCC(CN2CCN(c3ccc(C(=O)NS(=O)(=O)c4ccc(NCC5CCOCC5)c([N+](=O)[O-])c4)c(Oc4cnc5[nH]ccc5c4)c3)CC2)=C(c2ccc(Cl)cc2)C1 [Venetoclax] + C[C@@H](Nc1cc(F)cc(F)c1)c1cc(C(=O)N(C)C)cc2c(=O)cc(N3CCOCC3)oc12 [AZD8186] (first compound max 1 µM, 7x7, partner max 3 µM) -0.0374

Answer with the recorded Bliss excess for the compound listed here: CS(=O)(=O)CCNCc1ccc(-c2ccc3ncnc(Nc4ccc(OCc5cccc(F)c5)c(Cl)c4)c3c2)o1 [Lapatinib] + C[C@@H](Oc1cc(-c2cnn(C3CCNCC3)c2)cnc1N)c1c(Cl)ccc(F)c1Cl [Crizotinib] (first compound max 10 µM, 7x7, partner max 10 µM) -0.0346

====

Can you tell me Bliss excess for the items I'm about to list?
- Test system: TE-6 (Esophageal Squamous Cell Carcinoma)
- experiment: Bliss excess, mean over the matrix (fraction); higher = more synergy
Format: numeric value only, no unit, no commentary.

Answer with the recorded Bliss excess for the molecule listed here: NC1(C(=O)N[C@@H](CCO)c2ccc(Cl)cc2)CCN(c2ncnc3[nH]ccc23)CC1 [Capivasertib] + CCN(CCO)CCCOc1ccc2c(Nc3cc(CC(=O)Nc4cccc(F)c4)[nH]n3)ncnc2c1 [AZD2811] (first compound max 10 µM, 7x7, partner max 1 µM) -0.0003

Answer with the recorded Bliss excess for the molecule listed here: C[C@@H](c1ccc2nccn2c1)n1nnc2ncc(-c3cnn(C)c3)nc21 [Savolitinib] + Cc1c2c(nn1C)CSCc1cc(n(C)n1)CSc1cc(c3ccccc3c1)OCCCc1c(C(=O)O)n(C)c3c-2c(Cl)ccc13 [AZD5991] (first compound max 1 µM, 7x7, partner max 1 µM) -0.0541
